biological target: Cytochrome P450 3A4 (Homo sapiens)
Sequence (P08684 whole entry): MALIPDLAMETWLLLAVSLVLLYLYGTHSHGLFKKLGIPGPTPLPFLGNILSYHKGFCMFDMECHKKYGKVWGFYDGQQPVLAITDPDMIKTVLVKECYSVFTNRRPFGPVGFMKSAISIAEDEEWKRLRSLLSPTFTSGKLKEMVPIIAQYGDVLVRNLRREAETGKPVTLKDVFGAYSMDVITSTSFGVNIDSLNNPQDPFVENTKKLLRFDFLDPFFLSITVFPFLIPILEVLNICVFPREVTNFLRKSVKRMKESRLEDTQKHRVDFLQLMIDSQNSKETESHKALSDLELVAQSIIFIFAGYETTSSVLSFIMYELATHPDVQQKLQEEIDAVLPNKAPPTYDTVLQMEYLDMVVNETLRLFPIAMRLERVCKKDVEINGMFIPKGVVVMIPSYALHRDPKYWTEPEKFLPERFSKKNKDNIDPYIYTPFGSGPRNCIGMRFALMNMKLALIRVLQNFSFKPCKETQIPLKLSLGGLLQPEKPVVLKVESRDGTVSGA
property measured: IC50

Qu. Look up IC50 with Cytochrome P450 3A4 (Homo sapiens) for this compound: `C[C@@H](O[C@H]1CC[C@]2(CCC(F)(F)CO2)CC1)c1nc(-c2cc(F)c(CS(C)(=O)=O)c(F)c2)no1`
Ans. > 50 µM

* * *

test: Protein binding in human plasma; type: ADME, cell-free; conditions: read-out: PPB (converted)
property measured: fraction unbound
Field format: numeric only.

Qu. I have this compound here, `C[C@@H](O[C@H]1CC[C@]2(CC1)COC(C)(C)C2)c1nc(-c2cc(F)c(CS(C)(=O)=O)c(F)c2)no1` , and I need its recorded fraction unbound.
Ans. 0.035
